- procedure.summary: qHTS of pediatric cancer cell lines to identify multiple opportunities for drug repurposing: Primary screen for BT-37 cells (AID 1347094)
- experimental.context: BT-37 viability, CellTiter-Glo luminescence, 48 h; series mostly up to 57.3 µM
Inconclusive results are not listed. The source made the active and inactive calls. Calls come from the whole dose curve; as a rule, active = well fitted cell-killing curve with a large enough effect; inconclusive = small, poorly fitted or top-dose-only effect; inactive = flat fitted curve, though single readings scatter.
Select the matching outcome among yes (1) (active), no (0) (inactive)

Previously resolved entries follow.
>>> class_label("O=C(O)[C@H](Cc1c[nH]c2ccccc12)N1C(=O)c2ccccc2C1=O")
"no (0)"
>>> class_label("Cc1ccc(C(N)=O)cc1Nc1nccc(-c2cn(C(C)C)c3cnccc23)n1")
"yes (1)"
>>> class_label("CCCCCN(CCC12CC3CC(CC(C3)C1)C2)C(=O)NCCCc1ccncc1")
"yes (1)"
>>> class_label("COC(=O)C[C@](O)(CCCC(C)(C)O)C(=O)O[C@@H]1C(OC)=C[C@]23CCCN2CCc2cc4c(cc2[C@H]13)OCO4")
"no (0)"
>>> class_label("CN1CCN(c2ccc3nc(-c4c(N)c5c(F)cccc5[nH]c4=O)[nH]c3c2)CC1")
"yes (1)"

Query: How did this test come out for CC(C)(C)c1cnc(CSc2cnc(NC(=O)C3CCNCC3)s2)o1 ?
Response: yes (1)

Query: Next: CC[C@H]1CN2CCc3cc(OC)c(OC)cc3[C@H]2C[C@@H]1C[C@@H]1NCCc2cc(OC)c(OC)cc21
Response: yes (1)

Query: And the next one, Cc1cc(C(=O)N2CCN(c3cccc(Cl)c3)CC2)n(-c2ccccc2)n1 ?
Response: yes (1)

Query: Also need COc1cc2ncn(-c3cc(OCc4ccccc4C(F)(F)F)c(C(N)=O)s3)c2cc1OC , thanks.
Response: yes (1)

Taken from PubChem BioAssay (NCATS).
